- assayed-system: T1, M2
- T1 construct: also called PD1 mutant M2
- assay-name: scFv-phage ELISA
For each of the binders below, state its OD490.
// no unit, no text: just the number

Return reported OD490; argument: PD1-44B5 (antibody, V domains shown, scFv-phage in the screening ELISA; later whole IgG) VH: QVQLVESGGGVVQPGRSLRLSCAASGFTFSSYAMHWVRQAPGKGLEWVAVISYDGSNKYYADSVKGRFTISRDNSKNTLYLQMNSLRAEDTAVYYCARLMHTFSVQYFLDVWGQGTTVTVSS VL: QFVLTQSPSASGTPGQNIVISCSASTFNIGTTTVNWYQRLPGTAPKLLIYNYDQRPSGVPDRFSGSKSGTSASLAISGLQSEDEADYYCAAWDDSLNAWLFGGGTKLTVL
3.7

Report OD490 for PD1-41C9 (antibody, V domains shown, scFv-phage in the screening ELISA; whole IgG in the other assays) VH: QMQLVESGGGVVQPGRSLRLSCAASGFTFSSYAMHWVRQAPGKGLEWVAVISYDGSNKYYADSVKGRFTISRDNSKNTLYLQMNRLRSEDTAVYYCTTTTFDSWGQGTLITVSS VL: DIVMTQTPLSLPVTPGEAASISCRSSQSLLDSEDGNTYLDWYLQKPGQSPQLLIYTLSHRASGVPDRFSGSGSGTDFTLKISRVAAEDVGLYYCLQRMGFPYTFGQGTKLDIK please.
0.8

src = patent US20190248900A1
